All figures here come from patent US10618964B2.

# Experimental System: native soluble IL-6R in human plasma (human, UniProt P08887)
# Assay Remarks: ELISA 1, periplasmic extract; competitor IL-6; human plasma
# Source text: In this ELISA, plasma was used as a source of native soluble IL-6R. By this assay, we aimed to confirm the alphascreen results and to get a view on the cross-reactivity of the clones towards cynomolgous IL-6R. […] Subsequently, plasma soluble IL-6R was captured on a B-N12 coated plate and bound IL-6 was detected using anti-IL-6 antibody BAF206 and streptavidin-HRP (ELISA 1 and ELISA 2). […]
Measured Endpoint: OD450 ratio sample/blank

>>> assay_value("IL6RPMP101H6 (VHH) VHH: EMQLVESGGGLVQAGGSLRLSCTASGRTFTDYDMGWFRQAPGKEREVVAIIDTNGDNTLTVGSVKGRFAISSDNAKNTVYLQMNSLLPEDTAVYTCAAGAWSALRRSVANYWGQGTQVTVSS")
0.788
>>> assay_value("IL6RPMP107C3 (VHH) VHH: EVQLVESGGGLVQAGGSLNLSCNASGDIGSINAMGWHRQAPGQQREWVAVITDTDSTIYPDSVKGRFAISRDGAKNTVHLRMSSLKPEDTAVYYCNAYQAGWGDYWGQGTQVTVSS")
0.438
>>> assay_value("IL6RPMP100D11 (VHH) VHH: EVQLVESGGGLVQAGDSLRLSCLASGRSFKDDAMGWFRQAPGKEREFVSGIDWRGNIVDAESVKGRFTISRENAKNTLYLQMNHLKPEDTAVYYCAASSVFSDLRYRKNPKYWGQGTQVTVSS")
1.9
>>> assay_value("IL6RPMP103D7 (VHH) VHH: EVQLVESGGGLVEAGGSLRLSCAAAGRTLSSYSMAWFRQAPGKEREFVAIIRGNPSRTYHSDSVKGRFTASRDNAKNTVYLQMNRLEPEDTAVYYCAADPPPFASDYSAPQSYDYWGQGTQVTVSS")
0.355
>>> assay_value("IL6RPMP101F6 (VHH) VHH: EVQLVESGGGLVQAGGSLRLSCAASGSIFSIKAMGWYRQAPGKQRELVARITSGGSTYYADSVKGRFTISRDNAKNTVYLQMNSLKPEDTAVFYCNAIVTDSDYDLGNDYWGQGTQVTVSS")
0.0703
>>> assay_value("IL6RPMP101C3 (VHH) VHH: EVQLVESGGGLVRAGGSLRLSCAASGFAFDDYAIGWFRQAPGKEREGVSSISSSNGNTYYADSVRGRFTISSDNAKNTVYLQMNSLKPEDTGVYYCAAIWGIFFNEKMPVGAYDYWGQGTQVTVSS")
0.58
>>> assay_value("IL6RPMP120C11 (VHH) VHH: EVQLVESGGGLVQAGGSLSLSCATSGRTISDDTMAWFRQAPGKEREFVATITFSGARTHYSDSVRDRFTISRDNAKNTVYLQMNSLKSEDTAVYYCAASTKYYSSTYNYIHPAFYDIWGQGTQVTVSS")
0.673
>>> assay_value("IL6RPMP105D3 (VHH) VHH: EVQLEESGGGLVQAGGSLRLSCAASGSIFRINAMGWYRQAPGKQRELVAAAISGGSTNYADFVKGRFTISRDNAKNTVYLQMNSLKPEDTAVYYCNALVVSHNYSDYVPFPDDYWGQGTQVTVSS")
0.457
